# test details: Solubility of amorphous substance in solvent systems (supersaturated solution, oscillated 24 h at room temperature, HPLC)
# Format: physicochemical
# conditions: dehydrated alcohol 10%-propylene glycol 20%-water 70% (w/w), aqueous with cosolvent or surfactant or cyclodextrin, thermodynamic from solid, Dehydrated alcohol 10%-propylene glycol 20%-water 70% (w/w); read-out: Solubility
quantity: solubility at 24 h (µg/mL)
Give the quantity in µg/mL, number only.

Give its solubility at 24 h value. Item: Cc1ncsc1-c1ccc(CNC(=O)[C@@H]2C[C@@H](O)CN2C(=O)[C@@H](NC(=O)COCCCCOc2ccc(-c3ccc(N4C(=S)N(c5ccc(C#N)c(C(F)(F)F)c5F)C(=O)C4(C)C)cn3)cc2)C(C)(C)C)cc1
30

====

# test details: Solubility of amorphous substance in solvent systems (supersaturated solution, oscillated 24 h at room temperature, HPLC)
# Type: physicochemical
# conditions: solvent mixture, aqueous with cosolvent or surfactant or cyclodextrin, thermodynamic from solid, Dehydrated alcohol 30%-glycerin 10%-water 60% (w/w); read-out: Solubility
quantity: solubility at 24 h (µg/mL)
Give the quantity in µg/mL, number only.

Give its solubility at 24 h value. Item: Cc1ncsc1-c1ccc(CNC(=O)[C@@H]2C[C@@H](O)CN2C(=O)[C@@H](NC(=O)COCCCCOc2ccc(-c3ccc(N4C(=S)N(c5ccc(C#N)c(C(F)(F)F)c5F)C(=O)C4(C)C)cn3)cc2)C(C)(C)C)cc1
80

====

# test details: Solubility of amorphous substance in solvent systems (supersaturated solution, oscillated 24 h at room temperature, HPLC)
# Format: physicochemical
# conditions: solvent mixture, aqueous with cosolvent or surfactant or cyclodextrin, thermodynamic from solid, Dehydrated alcohol 10%-glycerin 20%-water 70% (w/w); read-out: Solubility
quantity: solubility at 24 h

Give its solubility at 24 h value. Item: Cc1ncsc1-c1ccc(CNC(=O)[C@@H]2C[C@@H](O)CN2C(=O)[C@@H](NC(=O)COCCCCOc2ccc(-c3ccc(N4C(=S)N(c5ccc(C#N)c(C(F)(F)F)c5F)C(=O)C4(C)C)cn3)cc2)C(C)(C)C)cc1
< 100 µg/mL

====

# test details: Solubility of amorphous substance in solvent systems (supersaturated solution, oscillated 24 h at room temperature, HPLC)
# Type: physicochemical
# conditions: solvent mixture, aqueous with cosolvent or surfactant or cyclodextrin, thermodynamic from solid, Dehydrated alcohol 20%-glycerin 20%-water 60% (w/w); read-out: Solubility
quantity: solubility at 24 h

Give its solubility at 24 h value. Item: Cc1ncsc1-c1ccc(CNC(=O)[C@@H]2C[C@@H](O)CN2C(=O)[C@@H](NC(=O)COCCCCOc2ccc(-c3ccc(N4C(=S)N(c5ccc(C#N)c(C(F)(F)F)c5F)C(=O)C4(C)C)cn3)cc2)C(C)(C)C)cc1
< 0.1 mg/mL

====

# test details: Solubility of amorphous substance in solvent systems (supersaturated solution, oscillated 24 h at room temperature, HPLC)
# Type: physicochemical
# conditions: solvent mixture, aqueous with cosolvent or surfactant or cyclodextrin, thermodynamic from solid, Dehydrated alcohol 30%-glycerin 40%-water 30% (w/w); read-out: Solubility
quantity: solubility at 24 h (µg/mL)
Give the quantity in µg/mL, number only.

Give its solubility at 24 h value. Item: Cc1ncsc1-c1ccc(CNC(=O)[C@@H]2C[C@@H](O)CN2C(=O)[C@@H](NC(=O)COCCCCOc2ccc(-c3ccc(N4C(=S)N(c5ccc(C#N)c(C(F)(F)F)c5F)C(=O)C4(C)C)cn3)cc2)C(C)(C)C)cc1
2260

====

# test details: Solubility of amorphous substance in solvent systems (supersaturated solution, oscillated 24 h at room temperature, HPLC)
# Format: physicochemical
# conditions: dehydrated alcohol-propylene glycol-water solvent mixture, aqueous with cosolvent or surfactant or cyclodextrin, thermodynamic from solid, Dehydrated alcohol 10%-propylene glycol 40%-water 50% (w/w); read-out: Solubility
quantity: solubility at 24 h (mg/mL)
Give the quantity in mg/mL, number only.

Give its solubility at 24 h value. Item: Cc1ncsc1-c1ccc(CNC(=O)[C@@H]2C[C@@H](O)CN2C(=O)[C@@H](NC(=O)COCCCCOc2ccc(-c3ccc(N4C(=S)N(c5ccc(C#N)c(C(F)(F)F)c5F)C(=O)C4(C)C)cn3)cc2)C(C)(C)C)cc1
0.54

====

# test details: Solubility of amorphous substance in solvent systems (supersaturated solution, oscillated 24 h at room temperature, HPLC)
# Type: physicochemical
# conditions: dehydrated alcohol 10%-propylene glycol 30%-water 60% (w/w), aqueous with cosolvent or surfactant or cyclodextrin, thermodynamic from solid, Dehydrated alcohol 10%-propylene glycol 30%-water 60% (w/w); read-out: Solubility
quantity: solubility at 24 h (µg/mL)
Give the quantity in µg/mL, number only.

Give its solubility at 24 h value. Item: Cc1ncsc1-c1ccc(CNC(=O)[C@@H]2C[C@@H](O)CN2C(=O)[C@@H](NC(=O)COCCCCOc2ccc(-c3ccc(N4C(=S)N(c5ccc(C#N)c(C(F)(F)F)c5F)C(=O)C4(C)C)cn3)cc2)C(C)(C)C)cc1
450

====

# test details: Solubility of amorphous substance in solvent systems (supersaturated solution, oscillated 24 h at room temperature, HPLC)
# Assay type: physicochemical
# conditions: dehydrated alcohol-PEG400-water solvent mixture, aqueous with cosolvent or surfactant or cyclodextrin, thermodynamic from solid, Dehydrated alcohol 35%-PEG400 40%-water 25% (w/w); read-out: Solubility
quantity: solubility at 24 h

Give its solubility at 24 h value. Item: Cc1ncsc1-c1ccc(CNC(=O)[C@@H]2C[C@@H](O)CN2C(=O)[C@@H](NC(=O)COCCCCOc2ccc(-c3ccc(N4C(=S)N(c5ccc(C#N)c(C(F)(F)F)c5F)C(=O)C4(C)C)cn3)cc2)C(C)(C)C)cc1
> 181 mg/mL

====

# test details: Solubility of amorphous substance in solvent systems (supersaturated solution, oscillated 24 h at room temperature, HPLC)
# Type: physicochemical
# conditions: dehydrated alcohol 60%: water 40% (w/w), organic solvent or mixture, thermodynamic from solid, Dehydrated alcohol 60%: water 40% (w/w); read-out: 24 h solubility
quantity: solubility at 24 h (mg/mL)
Give the quantity in mg/mL, number only.

Give its solubility at 24 h value. Item: Cc1ncsc1-c1ccc(CNC(=O)[C@@H]2C[C@@H](O)CN2C(=O)[C@@H](NC(=O)COCCCCOc2ccc(-c3ccc(N4C(=S)N(c5ccc(C#N)c(C(F)(F)F)c5F)C(=O)C4(C)C)cn3)cc2)C(C)(C)C)cc1
26

====

# test details: Solubility of amorphous substance in solvent systems (supersaturated solution, oscillated 24 h at room temperature, HPLC)
# Type: physicochemical
# conditions: dehydrated alcohol 10%: water 90% (w/w), aqueous with cosolvent or surfactant or cyclodextrin, thermodynamic from solid, Dehydrated alcohol 10%: water 90% (w/w); read-out: 24 h solubility
# Description: The amorphous substance of the compound of formula I was prepared into supersaturated solutions with different solvents, and oscillated under a room temperature condition (a constant temperature). After oscillating for 24 h, sampling was performed, and the content of the sample was detected by HPLC under condition 1. […]
quantity: solubility at 24 h (µg/mL)
Give the quantity in µg/mL, number only.

Give its solubility at 24 h value. Item: Cc1ncsc1-c1ccc(CNC(=O)[C@@H]2C[C@@H](O)CN2C(=O)[C@@H](NC(=O)COCCCCOc2ccc(-c3ccc(N4C(=S)N(c5ccc(C#N)c(C(F)(F)F)c5F)C(=O)C4(C)C)cn3)cc2)C(C)(C)C)cc1
140

====

# test details: Solubility of amorphous substance in solvent systems (supersaturated solution, oscillated 24 h at room temperature, HPLC)
# Assay type: physicochemical
# conditions: dehydrated alcohol-propylene glycol-water solvent mixture, aqueous with cosolvent or surfactant or cyclodextrin, thermodynamic from solid, Dehydrated alcohol 30%-propylene glycol 30%-water 40% (w/w); read-out: Solubility
quantity: solubility at 24 h (µg/mL)
Give the quantity in µg/mL, number only.

Give its solubility at 24 h value. Item: Cc1ncsc1-c1ccc(CNC(=O)[C@@H]2C[C@@H](O)CN2C(=O)[C@@H](NC(=O)COCCCCOc2ccc(-c3ccc(N4C(=S)N(c5ccc(C#N)c(C(F)(F)F)c5F)C(=O)C4(C)C)cn3)cc2)C(C)(C)C)cc1
6390

====

# test details: Solubility of amorphous substance in solvent systems (supersaturated solution, oscillated 24 h at room temperature, HPLC)
# Type: physicochemical
# conditions: dehydrated alcohol-propylene glycol-water solvent mixture, aqueous with cosolvent or surfactant or cyclodextrin, thermodynamic from solid, Dehydrated alcohol 30%-propylene glycol 40%-water 30% (w/w); read-out: Solubility
quantity: solubility at 24 h

Give its solubility at 24 h value. Item: Cc1ncsc1-c1ccc(CNC(=O)[C@@H]2C[C@@H](O)CN2C(=O)[C@@H](NC(=O)COCCCCOc2ccc(-c3ccc(N4C(=S)N(c5ccc(C#N)c(C(F)(F)F)c5F)C(=O)C4(C)C)cn3)cc2)C(C)(C)C)cc1
25.2 mg/mL

====

# test details: Solubility of amorphous substance in solvent systems (supersaturated solution, oscillated 24 h at room temperature, HPLC)
# Type: physicochemical
# conditions: oleic acid, oil or lipid, thermodynamic from solid, solvent: Oleic acid; read-out: 24 h solubility
# Method: The amorphous substance of the compound of formula I was prepared into supersaturated solutions with different solvents, and oscillated under a room temperature condition (a constant temperature). After oscillating for 24 h, sampling was performed, and the content of the sample was detected by HPLC under condition 1. […]
quantity: solubility at 24 h (µg/mL)
Give the quantity in µg/mL, number only.

Give its solubility at 24 h value. Item: Cc1ncsc1-c1ccc(CNC(=O)[C@@H]2C[C@@H](O)CN2C(=O)[C@@H](NC(=O)COCCCCOc2ccc(-c3ccc(N4C(=S)N(c5ccc(C#N)c(C(F)(F)F)c5F)C(=O)C4(C)C)cn3)cc2)C(C)(C)C)cc1
1410
